# Test system: SF-268 CNS
# Assay info: NCI-60 one-dose screen, 48 h (100 = growth as untreated, 0 = no growth, -100 = all killed)
# Experimental conditions: 10 µM unless noted
This is part of a sample that, as a whole, favours compounds with a hit. Of some 83,000 tested, about 20% had one in any assay.
Parameter: growth (%)
Write down the numeric answer in % and omit the unit.

Recorded results for 2 molecules are shown here.
Molecule | U | Endpoint result
Nc1ccc(C2c3ccccc3Oc3ccccc32)cc1 | % | 102
O=c1cc(-c2ccccc2)oc2cc(OCc3cn(Cc4ccc(F)cc4)nn3)cc(OCc3cn(Cc4ccc(F)cc4)nn3)c12 | % | 21.8

The molecule `O=C(Nc1ccc(Cl)cc1F)c1cc(I)ccc1O` , when measured on SF-268 CNS, yielded growth of 17.1

The molecule `O=Nc1c(O)ccc2ccccc12.O=Nc1c(O)ccc2ccccc12.O=Nc1c([O-])ccc2ccccc12.[Fe+3]` , when measured on SF-268 CNS, yielded growth of 106

The molecule `CN1CCN(Cc2ccc(NC(=O)c3cncc(C#Cc4nc(N)nc5[nH]ncc45)c3)cc2C(F)(F)F)CC1` , when measured on SF-268 CNS, yielded growth of 102

The molecule `COc1nccc2cc3c(=O)n4c(cc5ccccc54)c(=O)n3c12` , when measured on SF-268 CNS, yielded growth of 101

The molecule `O=C1NC(=O)C(=Cc2cn(Cc3cn(Cc4ccc(Cl)cc4Cl)nn3)c3ccccc23)C(=O)N1` , when measured on SF-268 CNS, yielded growth of 84.8

The molecule `COc1cc2nc(-c3cnc(N(C)C)nc3)nc(NC3CCN(Cc4ccccc4)CC3)c2cc1OC` , when measured on SF-268 CNS, yielded growth of -60

The molecule O=C(c1nc2ccccc2[nH]1)C1C(c2ccc([N+](=O)[O-])cc2)C2CC3CCCCC3N2[C@@]12C(=O)Nc1cc(Cl)ccc12 (some centres undefined) , when measured on SF-268 CNS, yielded growth of 41.3

The molecule COc1ccc(/C=c2\sc3n(c2=O)NC2C(N=3)N(C)C(=O)N2C)cc1 (centres undefined) , when measured on SF-268 CNS, yielded growth of 93.5

The molecule `COC(=O)[C@@H]1CCCN1C(=O)[C@H]1CCCN1C(=O)[C@@H](Cc1c[nH]c2ccccc12)NC(=S)Nc1cc(C(F)(F)F)cc(C(F)(F)F)c1` , when measured on SF-268 CNS, yielded growth of 38

The molecule `O=c1oc2ccc(F)cc2c(=O)n1-c1ccc(Br)cc1F` , when measured on SF-268 CNS, yielded growth of 11.2

The molecule `CCOc1ccccc1CN1CCc2nc3cc(C(C)(C)C)[nH]n3c(=O)c2C1` , when measured on SF-268 CNS, yielded growth of 105

The molecule COc1ccc(CCN2C(=O)/C(=C/c3ccc(C4Oc5ccccc5C5CC(c6cccc(OC)c6)=NN54)cc3)SC2=S)cc1 (centres undefined) , when measured on SF-268 CNS, yielded growth of 94.4

The molecule `Cc1ccc(N=NC2C(=O)N(c3ccc(Cl)cc3)N(c3ccc(Cl)cc3)C2=O)cc1` , when measured on SF-268 CNS, yielded growth of 100

The molecule `O=C(Nc1ccc(Br)cc1F)c1cc(Cl)ccc1O` , when measured on SF-268 CNS, yielded growth of 2.69

The molecule CC(=Nc1ccccc1)C1=C(O)C(Cc2ccc(F)cc2)NC1=O (centres undefined) , when measured on SF-268 CNS, yielded growth of 54.9

The molecule `O=c1oc2ccc(I)cc2c(=O)n1-c1ccc(Br)cc1F` , when measured on SF-268 CNS, yielded growth of 9.55

The molecule `N#C/C(=C\c1c(-c2ccccc2)[nH]c2ccccc12)S(=O)(=O)c1ccccc1` , when measured on SF-268 CNS, yielded growth of 53
